- test-system: T1, B-cat-Halo (UniProt P35222 1-781, HaloTag NanoBRET 618 Ligand bound in the assay)
- T1 sequence (looked up): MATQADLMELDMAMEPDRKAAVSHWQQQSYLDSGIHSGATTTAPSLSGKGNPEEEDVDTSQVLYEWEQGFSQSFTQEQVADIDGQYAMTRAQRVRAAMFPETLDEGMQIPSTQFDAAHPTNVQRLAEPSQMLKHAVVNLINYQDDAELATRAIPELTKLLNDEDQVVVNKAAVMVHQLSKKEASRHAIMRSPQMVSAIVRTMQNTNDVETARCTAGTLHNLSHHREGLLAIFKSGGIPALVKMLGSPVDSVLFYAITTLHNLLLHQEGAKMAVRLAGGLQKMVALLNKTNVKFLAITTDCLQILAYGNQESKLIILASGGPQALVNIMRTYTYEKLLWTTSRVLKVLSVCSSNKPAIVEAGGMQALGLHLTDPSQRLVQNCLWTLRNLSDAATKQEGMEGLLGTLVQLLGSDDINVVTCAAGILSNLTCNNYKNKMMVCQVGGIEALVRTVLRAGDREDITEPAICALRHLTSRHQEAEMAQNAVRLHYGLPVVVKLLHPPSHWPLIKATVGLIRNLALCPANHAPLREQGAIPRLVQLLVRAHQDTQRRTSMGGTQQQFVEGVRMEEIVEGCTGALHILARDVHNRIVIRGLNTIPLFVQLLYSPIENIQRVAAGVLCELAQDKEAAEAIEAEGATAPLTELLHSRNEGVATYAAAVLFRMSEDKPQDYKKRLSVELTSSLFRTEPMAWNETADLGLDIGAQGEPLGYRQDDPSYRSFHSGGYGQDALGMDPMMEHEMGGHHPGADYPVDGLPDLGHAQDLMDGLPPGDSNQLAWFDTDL
- experiment-summary: cell-based or functional assay
Starred links: 1 amine or outer side, 2 acyl side, 3 side chain; linkers in the order of their positions; H or OH if unused. Positions of bridges follow the written chain, without caps; N, C: chain ends. Non-standard residues stand in square brackets, D forms with d. Primed or numbered codes have the meaning given here. PyrS2″ = (S)-3-amino-1-((pent-4-en-1-yloxy)carbonyl)pyrrolidine-3-carboxylic acid (stapling residue), C=CCCCOC(=O)N1CC[C@@](N[*:1])(C(=O)[*:2])C1; B5(4) = 2,2-bis(4-pentenyl)glycine = 2-amino-2-(pent-4-en-1-yl)hept-6-enoic acid (stitching residue), C=CCCCC(CCCC=C)(N[*:1])C(=O)[*:2]; Phe(3-COOH) = N[C@@H](Cc1cccc(C(=O)O)c1)C(=O)O; 2F3MeF = Cc1cccc(C[C@H](N[*:1])C(=O)[*:2])c1F; Phe(2-CF3) = N[C@@H](Cc1ccccc1C(F)(F)F)C(=O)O; Bta = N[C@@H](Cc1csc2ccccc12)C(=O)O; αAllylPro = C=CC[C@@]1(C(=O)O)CCCN1; tBuAla = CC(C)(C)C[C@H](N)C(=O)O
quantity-name: NanoBRET Abs IC50

* Ac-[αAllylPro]D[tBuAla][B5(4)]D[Phe(3-COOH)]AAFL[PyrS2″][Phe(2-CF3)][Bta][MorphGln]-NH2 (staple 1-4, 4-11) [I-2541] | 4.7 µM
* Ac-[αAllylPro]D[tBuAla][B5(4)]D[Phe(3-COOH)]AAF[MorphGln][PyrS2″][2F3MeF][Bta][MorphGln]-NH2 (staple 1-4, 4-11; not fully specified; printed as Ac-PL3-Asp-Npg-B5-Asp-3COOHF-Ala-Ala-Phe-MorphGln-PyrS2-2F3MeF-BztA-MorphGln-NH2) [I-2547] | 3.5 µM
* Ac-[αAllylPro]D[tBuAla][B5(4)]D[Phe(3-COOH)]AAF[Me2Gln][PyrS2″][Phe(2-CF3)][Bta][MorphGln]-NH2 (staple 1-4, 4-11; not fully specified; printed as Ac-PL3-Asp-Npg-B5-Asp-3COOHF-Ala-Ala-Phe-Me2Gln-PyrS2-2F3MeF-BztA-MorphGln-NH2) [I-2545] | 4 µM
